Data provenance is patent US20030003396A1.

ε: recorded values
# Measurement Notes: UV absorption spectra measured in solution
# Type: physicochemical
# Measurement Setup: Table 2
Write it as a number; the unit L/mol/cm goes unstated.

Please review the following examples before continuing.
CCCCN1C(=O)C(=CC=C2Oc3ccccc3N2CC)C(C)=C(C#N)C1=O [Example 55]: 109380
CCOC(=O)C1=NN(c2ccccc2)C(=O)C1=CC=C1N(C)c2ccc(C(=O)OC)cc2C1(C)C [Example 52]: 62720

Incoming: Suppose we examine the molecule CCOC(=O)C(C#N)=c1[nH]c(=O)c(=CC=C2N(C)c3ccc(C(=O)OC)cc3C2(C)C)c(C)c1C(=O)OCC [Example 65] ; what ε value has been reported?
Outgoing: 142900

Incoming: Let us now turn to CCN1CCCC1=CC=C1SC(=S)N(CC)C1=O [Example 60]
Outgoing: 75006

----------
# Measurement Notes: UV absorption spectra measured in solution
# Format: physicochemical
# Measurement Setup: Table 3, in dioxane
λmax: recorded values
Write it as a number; the unit nm goes unstated.

Please review the following examples before continuing.
CCCN1C(=O)C(=CC(C)=CN(C)C)C(C)=C(C#N)C1=O: 337
COC(=O)C(C#N)=CC=CN1CCOCC1: 382
CCCCN1C(=O)C(=CC=CN(C)c2ccccc2)C(C)=C(C#N)C1=O: 480

# input for lookup
Incoming: Suppose we examine the molecule CCCN1C(=O)C(=CC=CN(C)C)C(C)=C(C#N)C1=O ; what λmax value has been reported?
Outgoing: 462

----------
# Measurement Notes: UV absorption spectra measured in solution
# Format: physicochemical
# Measurement Setup: Table 1
Observed Property: ε (L/mol/cm)
Write it as a number; the unit L/mol/cm goes unstated.

Incoming: Suppose we examine the molecule CCCN1C(=O)C(=Cc2cnc(N(C)C)s2)C(C)=C(C#N)C1=O ; what ε value has been reported?
Outgoing: 62860

----------
# Measurement Notes: UV absorption spectra measured in solution
# Type: physicochemical
# Measurement Setup: Table 2, |λDMF - λdioxane|
Δλ: recorded values
Write it as a number; the unit nm goes unstated.

CN1C(=CC=C2C(=O)OC(C)(C)OC2=O)C(C)(C)c2ccccc21: 2
CN1C(=CC=C2C(=O)c3ccccc3C2=O)C(C)(C)c2ccccc21: 6
COc1ccc2c(c1)C(C)(C)C(=CC(C#N)=C(C#N)C#N)N2C: 6

Incoming: Suppose we examine the molecule CCCCN1C(=O)C(=CC=C2Oc3ccccc3N2CC)C(C)=C(C#N)C1=O ; what Δλ value has been reported?
Outgoing: 5

Incoming: Let us now turn to CCCOC(=O)C(C#N)=CC=C1N(C)c2ccccc2C1(C)C
Outgoing: 7

Incoming: Let us now turn to CN1C(=CC=C2C(=O)CC(C)(C)CC2=O)C(C)(C)c2ccccc21
Outgoing: 3

Incoming: Let us now turn to CCCCN1C(=O)C(=CC=C2N(C)c3ccccc3C2(C)C)C(C)=C(C#N)C1=O
Outgoing: 2

----------
# Measurement Notes: UV absorption spectra measured in solution
# Assay type: physicochemical
# Measurement Setup: Table 3
Observed Property: ε (L/mol/cm)
Write it as a number; the unit L/mol/cm goes unstated.

Please review the following examples before continuing.
CCCN1C(=O)C(=CC=CN(C)c2ccc(OC)cc2)C(C)=C(C#N)C1=O: 73010
CCCCN1C(=O)C(=CC=CN(C)C)C(C(F)(F)F)=C(C#N)C1=O: 89100
CN(C=CC=C1C(=O)c2ccccc2C1=O)c1ccccc1: 84070
COC(=O)C(C#N)=CC=CN1CCOCC1: 62900
CCCN1C(=O)C(=CC=CN(C)C)C(C)=C(C#N)C1=O: 77180
CCCCN1C(=O)C(=CC=CN(C)c2ccccc2)C(C)=C(C#N)C1=O: 79685
CCN1C(=O)C(=CC=CC=CN(C)C)C(C)=C(C#N)C1=O: 149800
C=C(C)C(=O)OCCN1C(=O)C(=CC=CN2CCOCC2)C(C)=C(C#N)C1=O: 89800
CCN1C(=O)C(=CC=CC=CN(C)c2ccccc2)C(C)=C(C#N)C1=O: 119800

# input for lookup
Incoming: Suppose we examine the compound COc1ccc(N(C)C=CC=C2C(=O)NC(=O)C([n+]3ccccc3)=C2C)cc1.[O-][Cl+3]([O-])([O-])[O-] ; what ε value has been reported?
Outgoing: 62780
